pIC50 overview
- assay.system: T1, human PACAP38 (human, not fully specified; C-terminal lysine is amidated; N-terminal or C-terminal biotin in the HTRF and PC-12 cell binding assays)
- T1 construct: synthetic peptide, bought; also called huPACAP (1-38)
- T1 peptide: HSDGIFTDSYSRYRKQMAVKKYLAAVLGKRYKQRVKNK
- method.summary: inhibition of 100 nM biotin-PACAP38 binding to PC-12 cells, TRF
For clarity, pIC50 is expressed as the negative log10 of concentration in mol/L.

Use these answered entries as a reference point.
binder	pIC50
anti-PACAP antibody Ab5 (antibody, human IgG1, kappa, N297A, V domains shown, full-length rabbit/human chimeric antibody) VH: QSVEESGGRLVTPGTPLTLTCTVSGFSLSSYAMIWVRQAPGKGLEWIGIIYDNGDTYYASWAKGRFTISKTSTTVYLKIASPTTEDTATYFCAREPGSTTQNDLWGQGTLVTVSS VL: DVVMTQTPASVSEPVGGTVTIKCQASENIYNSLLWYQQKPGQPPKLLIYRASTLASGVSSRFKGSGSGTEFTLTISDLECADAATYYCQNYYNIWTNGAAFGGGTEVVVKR	7.79
anti-PACAP antibody Ab2 (antibody, human IgG1, kappa, N297A, V domains shown, full-length rabbit/human chimeric antibody) VH: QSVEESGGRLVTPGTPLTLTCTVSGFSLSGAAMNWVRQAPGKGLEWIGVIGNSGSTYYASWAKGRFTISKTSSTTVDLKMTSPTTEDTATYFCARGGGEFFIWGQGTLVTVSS VL: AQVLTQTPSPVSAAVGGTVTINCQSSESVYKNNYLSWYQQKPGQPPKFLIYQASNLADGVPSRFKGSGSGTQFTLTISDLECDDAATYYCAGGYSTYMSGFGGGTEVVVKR	7.58
anti-PACAP antibody Ab7 (antibody, human IgG1, kappa, N297A, V domains shown, full-length rabbit/human chimeric antibody) VH: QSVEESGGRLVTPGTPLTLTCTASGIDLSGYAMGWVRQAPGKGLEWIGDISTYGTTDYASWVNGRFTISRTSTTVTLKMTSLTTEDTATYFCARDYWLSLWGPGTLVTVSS VL: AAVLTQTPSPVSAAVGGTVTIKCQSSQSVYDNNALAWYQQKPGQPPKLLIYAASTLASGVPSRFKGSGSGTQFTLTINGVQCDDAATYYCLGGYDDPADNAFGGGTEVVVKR	7.66
anti-PACAP antibody Ab17 (antibody, human IgG1, kappa, N297A, V domains shown, full-length rabbit/human chimeric antibody) VH: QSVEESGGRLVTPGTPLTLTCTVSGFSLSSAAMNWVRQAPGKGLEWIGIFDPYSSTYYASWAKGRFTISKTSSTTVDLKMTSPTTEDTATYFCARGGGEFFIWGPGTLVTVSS VL: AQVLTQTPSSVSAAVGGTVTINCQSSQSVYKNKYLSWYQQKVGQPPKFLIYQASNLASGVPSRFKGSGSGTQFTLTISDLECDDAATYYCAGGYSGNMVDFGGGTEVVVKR	7.48

Input: // pIC50 lookup, key: anti-PACAP antibody Ab18 (antibody, human IgG1, kappa, N297A, V domains shown, full-length rabbit/human chimeric antibody) VH: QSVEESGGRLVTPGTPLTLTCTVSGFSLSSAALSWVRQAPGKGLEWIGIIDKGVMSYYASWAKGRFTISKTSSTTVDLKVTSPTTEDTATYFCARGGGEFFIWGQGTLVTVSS VL: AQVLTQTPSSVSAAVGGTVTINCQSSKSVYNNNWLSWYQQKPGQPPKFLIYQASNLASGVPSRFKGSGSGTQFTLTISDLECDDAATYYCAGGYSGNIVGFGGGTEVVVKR
Output: 7.51
